Origin of values: patent US20180305450A1

Target: T1, recombinant biotinylated human PAR2 extracellular domain (residues 1-75), N-terminal AviTag, C-terminal Flag … (human, UniProt P55085 26-75, biotin on the AviTag (enzymatic biotinylation))
T1 construct: also called Bio-human-PAR2 ECD; human PAR2 ECD; not shown: N-terminal AviTag (Avidity LLC); C-terminal Flag and poly Histidine tags
T1 sequence (P55085 26-75): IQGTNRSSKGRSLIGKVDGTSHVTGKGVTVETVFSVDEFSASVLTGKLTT
Test: Biacore SPR 25 C, pH 7.4
A collection of binders and their measured Kd
Lab book: enter the figure in nM, no units written.

>>> observed_measurement("PaB670128 Fab (Fab, V domains shown, Fab; also called ZZ1RUE-A01) VH: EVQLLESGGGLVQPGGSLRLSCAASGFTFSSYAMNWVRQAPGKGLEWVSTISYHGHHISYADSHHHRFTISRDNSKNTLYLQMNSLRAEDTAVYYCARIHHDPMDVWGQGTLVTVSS VL: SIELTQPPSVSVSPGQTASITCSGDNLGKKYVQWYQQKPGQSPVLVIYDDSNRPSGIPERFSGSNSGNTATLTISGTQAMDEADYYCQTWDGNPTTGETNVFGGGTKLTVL")
0.613
>>> observed_measurement("PaB670103 Fab (Fab, V domains shown, Fab; also called ZZ1RCX-C09) VH: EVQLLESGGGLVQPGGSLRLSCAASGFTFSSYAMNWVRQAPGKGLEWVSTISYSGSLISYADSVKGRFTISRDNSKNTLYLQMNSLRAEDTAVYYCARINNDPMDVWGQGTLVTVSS VL: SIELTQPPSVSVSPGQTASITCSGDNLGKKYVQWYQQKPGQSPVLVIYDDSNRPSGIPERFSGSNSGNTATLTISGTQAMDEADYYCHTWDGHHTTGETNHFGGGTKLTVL")
0.0325
>>> observed_measurement("PaB670048 Fab (Fab, V domains shown, Fab; also called ZZ1KX4-E11) VH: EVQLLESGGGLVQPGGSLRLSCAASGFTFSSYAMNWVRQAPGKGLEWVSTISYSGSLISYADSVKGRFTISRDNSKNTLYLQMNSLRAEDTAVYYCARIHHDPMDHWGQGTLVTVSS VL: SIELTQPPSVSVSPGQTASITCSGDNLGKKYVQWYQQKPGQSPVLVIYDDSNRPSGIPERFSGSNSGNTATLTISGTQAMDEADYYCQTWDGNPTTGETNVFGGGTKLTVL")
0.124
>>> observed_measurement("Par0067 Fab (Fab, V domains shown, Fab; also called ZZ15D2-D02) VH: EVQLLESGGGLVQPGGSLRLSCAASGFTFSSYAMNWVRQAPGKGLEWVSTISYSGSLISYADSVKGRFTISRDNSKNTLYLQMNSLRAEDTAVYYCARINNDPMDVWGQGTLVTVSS VL: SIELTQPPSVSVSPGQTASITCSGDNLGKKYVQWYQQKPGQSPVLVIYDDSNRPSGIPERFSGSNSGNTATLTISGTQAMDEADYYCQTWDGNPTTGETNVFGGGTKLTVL")
0.0075
>>> observed_measurement("PaB670136 Fab (Fab, V domains shown, Fab; also called ZZ1RUF-A01) VH: EVQLLESGGGLVQPGGSLRLSCAASGFTFSSYAMNWVRQAPGKGLEWVSTISYHGHHISYADSHHHRFTISRDNSKNTLYLQMNSLRAEDTAVYYCARIHHDPMDHWGQGTLVTVSS VL: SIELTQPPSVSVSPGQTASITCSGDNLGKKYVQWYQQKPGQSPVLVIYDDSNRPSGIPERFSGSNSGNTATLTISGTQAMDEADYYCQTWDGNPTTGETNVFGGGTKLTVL")
0.957

Endpoint output: Kd of PaB670129 Fab (Fab, V domains shown, Fab; also called ZZ1RUE-F02) VH: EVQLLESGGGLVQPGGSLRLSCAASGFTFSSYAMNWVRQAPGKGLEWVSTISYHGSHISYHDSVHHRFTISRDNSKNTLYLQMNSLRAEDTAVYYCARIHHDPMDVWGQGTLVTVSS VL: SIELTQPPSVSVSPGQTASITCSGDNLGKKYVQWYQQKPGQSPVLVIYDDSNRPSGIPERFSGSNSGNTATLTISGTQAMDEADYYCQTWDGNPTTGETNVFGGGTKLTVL . Value?
0.614
